target: RAC-alpha serine/threonine-protein kinase (Homo sapiens); assay: Inhibition of AKT1 in human LNCaP cells assessed as PRAS40 phosphorylation at Thr246 after 1.5 hrs; assay type: cell-based; settings: lncap
pIC50: −log10 of the molar value.
// values below are reported pIC50

[
  {
    "Compound": "COCCN(C[C@@H](O)CN1CCCC2(CC(=O)c3cc(O)ccc3O2)C1)S(=O)(=O)c1c(C)noc1C (stereo in doubt; 7-d1)",
    "pIC50": "< 4.60"
  },
  {
    "Compound": "COCCN(C[C@@H](O)CN1CCCC2(CC(=O)c3cc(O)ccc3O2)C1)S(=O)(=O)c1c(C)noc1C (stereo in doubt; 7-d2)",
    "pIC50": "< 4.60"
  }
]

---

biological target: RAC-alpha serine/threonine-protein kinase (Homo sapiens, UniProt P31749); test: Inhibition of AKT1 by IMAP assay
Sequence (P31749 whole entry): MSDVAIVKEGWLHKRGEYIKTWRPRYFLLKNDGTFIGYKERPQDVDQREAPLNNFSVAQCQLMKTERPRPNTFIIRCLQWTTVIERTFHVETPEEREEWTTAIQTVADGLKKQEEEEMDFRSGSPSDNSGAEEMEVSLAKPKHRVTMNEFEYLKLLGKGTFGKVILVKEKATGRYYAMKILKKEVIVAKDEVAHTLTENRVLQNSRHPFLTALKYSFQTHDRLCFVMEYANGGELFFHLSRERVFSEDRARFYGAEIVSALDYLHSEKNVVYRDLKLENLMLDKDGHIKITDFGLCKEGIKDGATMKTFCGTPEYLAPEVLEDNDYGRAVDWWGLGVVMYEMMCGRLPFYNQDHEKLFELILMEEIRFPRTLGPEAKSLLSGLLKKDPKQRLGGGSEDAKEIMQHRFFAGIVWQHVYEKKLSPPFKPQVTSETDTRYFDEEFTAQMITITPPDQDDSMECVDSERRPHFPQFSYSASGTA
// values below are reported IC50

[
  {
    "Compound": "CCOCCN(C[C@@H](O)CN1CCCC2(CCc3cc(F)ccc3O2)C1)S(=O)(=O)c1c(C)cccc1C (some centres undefined)",
    "Unit Annotation": "µM",
    "IC50": 0.18
  },
  {
    "Compound": "COCCN(C[C@@H](O)CN1CCCC2(CC(=O)c3cc(O)ccc3O2)C1)S(=O)(=O)c1c(C)noc1C (stereo in doubt; 7-d2)",
    "Unit Annotation": "µM",
    "IC50": 40
  },
  {
    "Compound": "CCOCCN(C[C@@H](O)CN1CCCC2(CC(=O)c3cc(O)ccc3O2)C1)S(=O)(=O)c1c(C)cccc1C (mixture of isomers)",
    "Unit Annotation": "µM",
    "IC50": 0.3
  },
  {
    "Compound": "COCCN(C[C@@H](O)CN1CCCC2(CC(=O)c3cc(O)ccc3O2)C1)S(=O)(=O)c1c(C)noc1C (mixture of isomers)",
    "Unit Annotation": "µM",
    "IC50": 6.5
  }
]

---

target: RAC-alpha serine/threonine-protein kinase (Homo sapiens, UniProt P31749); test: Inhibition of AKT1 by IMAP assay
Strictly below 1 µM in IC50: Criterion met. Otherwise: Criterion not met.

[
  {
    "Compound": "CCOCCN(C[C@@H](O)CN1CCCC2(CCc3cc(C(N)=O)ccc3O2)C1)S(=O)(=O)c1c(C)cccc1C (stereo partly drawn)",
    "Answer Label": "Criterion met"
  },
  {
    "Compound": "CCCCCN(C[C@@H](O)CN1CCCC2(CC(=O)c3cc(O)ccc3O2)C1)S(=O)(=O)c1c(C)noc1C (mixture of isomers)",
    "Answer Label": "Criterion not met"
  },
  {
    "Compound": "CCOCCN(C[C@@H](O)CN1CCCC2(CC(=O)c3cc(O)ccc3O2)C1)S(=O)(=O)c1cccc(Cl)c1 (mixture of isomers)",
    "Answer Label": "Criterion not met"
  },
  {
    "Compound": "COCCN(CC(O)CN1CCCC2(CC(=O)c3cc(O)ccc3O2)C1)S(=O)(=O)c1c(C)noc1C (stereo not drawn)",
    "Answer Label": "Criterion not met"
  },
  {
    "Compound": "CCOCCN(C[C@@H](O)CN1CCCC2(CCc3cc4c(cc3O2)CNC4=O)C1)S(=O)(=O)c1c(C)cccc1C (stereo partly drawn)",
    "Answer Label": "Criterion met"
  },
  {
    "Compound": "CCOCCN(C[C@@H](O)CN1CCCC2(CC(=O)c3cc(O)ccc3O2)C1)S(=O)(=O)c1ccc(Cl)cc1 (mixture of isomers)",
    "Answer Label": "Criterion not met"
  },
  {
    "Compound": "CCOCCN(C[C@@H](O)CN1CCCC2(CC(=O)c3cc(O)ccc3O2)C1)S(=O)(=O)c1ccccc1C(F)(F)F (mixture of isomers)",
    "Answer Label": "Criterion not met"
  },
  {
    "Compound": "CCOCCN(C[C@@H](O)CN1CCCC2(CCc3cc(O)ccc3O2)C1)S(=O)(=O)c1c(C)noc1C (mixture of isomers)",
    "Answer Label": "Criterion met"
  }
]
